experiment: plasma pharmacokinetics in patients (HPLC–MS/MS, non-compartmental analysis); format: in vivo, human; conditions: human, plasma, oral, Dose-level 1: dacomitinib 30 mg QD + PD-0325901 2 mg BID; Cycle 1 Day 1; n = 6; read-out: Cmax dacomitinib, mean (CV%)
experimentalEndpoint: Cmax (ng/mL)
Your answer is read as ng/mL, so omit the unit and give the number.

The value of Cmax measured for the molecule COc1cc2ncnc(Nc3ccc(F)c(Cl)c3)c2cc1NC(=O)/C=C/CN1CCCCC1 [dacomitinib] turned out to be 19.2

----------
assay: plasma pharmacokinetics in patients (HPLC–MS/MS, non-compartmental analysis); type: in vivo, human; conditions: human, plasma, oral, Dose-level 1: dacomitinib 30 mg QD + PD-0325901 2 mg BID; Cycle 1 Day 1; n = 6; read-out: AUC0-24h dacomitinib, mean (CV%)
experimentalEndpoint: AUC(0-t) (ng·h/mL)
Your answer is read as ng·h/mL, so omit the unit and give the number.

The value of AUC(0-t) measured for the compound COc1cc2ncnc(Nc3ccc(F)c(Cl)c3)c2cc1NC(=O)/C=C/CN1CCCCC1 turned out to be 318
